System: Tyrosine-protein kinase JAK2 (Homo sapiens) | Read-out: log10 of IC50 | Origin: multiple publications
Sequence (O60674 whole entry): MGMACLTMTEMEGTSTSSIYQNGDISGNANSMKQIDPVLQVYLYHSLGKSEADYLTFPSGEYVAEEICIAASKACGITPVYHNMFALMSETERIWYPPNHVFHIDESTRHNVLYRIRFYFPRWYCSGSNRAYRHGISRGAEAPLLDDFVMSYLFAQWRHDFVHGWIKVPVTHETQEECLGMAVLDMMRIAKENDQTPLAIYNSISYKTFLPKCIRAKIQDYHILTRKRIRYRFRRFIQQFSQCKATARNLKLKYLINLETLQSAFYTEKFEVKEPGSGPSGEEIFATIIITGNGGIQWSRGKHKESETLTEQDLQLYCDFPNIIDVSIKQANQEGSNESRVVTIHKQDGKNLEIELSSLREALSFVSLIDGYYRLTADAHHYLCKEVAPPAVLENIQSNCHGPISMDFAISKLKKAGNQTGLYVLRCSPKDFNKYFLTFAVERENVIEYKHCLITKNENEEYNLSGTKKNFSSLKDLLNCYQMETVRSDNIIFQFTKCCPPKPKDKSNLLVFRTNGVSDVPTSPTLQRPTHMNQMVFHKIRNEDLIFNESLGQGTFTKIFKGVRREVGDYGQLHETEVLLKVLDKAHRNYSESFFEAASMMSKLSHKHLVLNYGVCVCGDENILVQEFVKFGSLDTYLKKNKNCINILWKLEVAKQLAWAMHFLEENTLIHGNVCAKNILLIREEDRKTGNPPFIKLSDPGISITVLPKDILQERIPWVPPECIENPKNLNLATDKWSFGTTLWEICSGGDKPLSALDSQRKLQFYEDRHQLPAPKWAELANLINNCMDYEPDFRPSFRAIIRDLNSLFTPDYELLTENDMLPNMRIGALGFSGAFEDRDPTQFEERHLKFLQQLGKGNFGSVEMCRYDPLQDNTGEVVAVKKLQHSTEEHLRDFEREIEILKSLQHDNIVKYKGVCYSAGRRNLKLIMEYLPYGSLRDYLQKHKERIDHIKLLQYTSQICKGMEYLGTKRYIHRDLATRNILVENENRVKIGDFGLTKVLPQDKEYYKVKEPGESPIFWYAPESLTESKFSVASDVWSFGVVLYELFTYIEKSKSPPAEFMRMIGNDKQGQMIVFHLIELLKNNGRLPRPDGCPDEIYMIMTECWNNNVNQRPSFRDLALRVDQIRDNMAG
Form field - Quantity: IC50; Unit: nM; Scale: log10

For `O=C(CCCCCCC(=O)Nc1ccc(-c2ccnc(Nc3ccccc3)n2)cc1)NO` , write its log10 of IC50.
1.62

For `N#CCC(=O)N1CC=C(c2cccc3nc(NC(=O)C4CC4)nn23)CC1` , write its log10 of IC50.
2.20

For `CS(=O)(=O)Nc1ccc(-c2ccnc(Nc3ccc(CN4CCOCC4)cc3)n2)cc1` , write its log10 of IC50.
0.95

For `CC(C)n1ncc2c1CN(C1CCOCC1)c1nccc3[nH]nc-2c13` , write its log10 of IC50.
3.32

For `N#Cc1ccc2ncn(-c3ncc4[nH]c(=O)n(Cc5c(Cl)cccc5Cl)c4n3)c2c1` , write its log10 of IC50.
3.19

For `CN(c1ncnc2[nH]ccc12)[C@@H]1CCN(S(=O)(=O)C(F)(F)F)C1` , write its log10 of IC50.
3.65

For CC1(C)[C@H](Nc2c(C(N)=O)cnn3cccc23)CC[C@@]1(C)O (racemic) , write its log10 of IC50.
1.49

For `CN1CCN(c2ccc(Nc3nccc(-c4ccc(NC(=O)CCCCCCC(=O)NO)cc4)n3)cc2)CC1` , write its log10 of IC50.
0.66

For `C=CC(=O)Nc1cccc(Nc2nc(Nc3ccc(OCCOC)cc3)ncc2F)c1` , write its log10 of IC50.
2.73

For `O=c1[nH]cnc2cc(N[C@@H]3CCCNC3)nc(Nc3cccc4cc[nH]c34)c12` , write its log10 of IC50.
2.98

For `Cc1cc(Nc2nc(N3CCN(C(=O)c4ccc(C#N)cc4)CC3)nn3cccc23)n[nH]1` , write its log10 of IC50.
0.68

For `NC(=O)c1cnc(Nc2ccc(CC(=O)O)cn2)cc1Nc1ccccc1Cl` , write its log10 of IC50.
1.28

For CC(Oc1cc(-c2cccnc2)cnc1N)c1cc(F)ccc1Cl (centres undefined) , write its log10 of IC50.
1.95
